ASSAY SYSTEM: recombinant rat GluN1/GluN2C (Rattus norvegicus, UniProt P35439+Q00961)
Construct: expressed in transfected cells; host or cells: Xenopus laevis oocytes (Ecocyte) injected with in vitro transcribed cRNA
Sequence (Q00961 20-1237, other chains not shown): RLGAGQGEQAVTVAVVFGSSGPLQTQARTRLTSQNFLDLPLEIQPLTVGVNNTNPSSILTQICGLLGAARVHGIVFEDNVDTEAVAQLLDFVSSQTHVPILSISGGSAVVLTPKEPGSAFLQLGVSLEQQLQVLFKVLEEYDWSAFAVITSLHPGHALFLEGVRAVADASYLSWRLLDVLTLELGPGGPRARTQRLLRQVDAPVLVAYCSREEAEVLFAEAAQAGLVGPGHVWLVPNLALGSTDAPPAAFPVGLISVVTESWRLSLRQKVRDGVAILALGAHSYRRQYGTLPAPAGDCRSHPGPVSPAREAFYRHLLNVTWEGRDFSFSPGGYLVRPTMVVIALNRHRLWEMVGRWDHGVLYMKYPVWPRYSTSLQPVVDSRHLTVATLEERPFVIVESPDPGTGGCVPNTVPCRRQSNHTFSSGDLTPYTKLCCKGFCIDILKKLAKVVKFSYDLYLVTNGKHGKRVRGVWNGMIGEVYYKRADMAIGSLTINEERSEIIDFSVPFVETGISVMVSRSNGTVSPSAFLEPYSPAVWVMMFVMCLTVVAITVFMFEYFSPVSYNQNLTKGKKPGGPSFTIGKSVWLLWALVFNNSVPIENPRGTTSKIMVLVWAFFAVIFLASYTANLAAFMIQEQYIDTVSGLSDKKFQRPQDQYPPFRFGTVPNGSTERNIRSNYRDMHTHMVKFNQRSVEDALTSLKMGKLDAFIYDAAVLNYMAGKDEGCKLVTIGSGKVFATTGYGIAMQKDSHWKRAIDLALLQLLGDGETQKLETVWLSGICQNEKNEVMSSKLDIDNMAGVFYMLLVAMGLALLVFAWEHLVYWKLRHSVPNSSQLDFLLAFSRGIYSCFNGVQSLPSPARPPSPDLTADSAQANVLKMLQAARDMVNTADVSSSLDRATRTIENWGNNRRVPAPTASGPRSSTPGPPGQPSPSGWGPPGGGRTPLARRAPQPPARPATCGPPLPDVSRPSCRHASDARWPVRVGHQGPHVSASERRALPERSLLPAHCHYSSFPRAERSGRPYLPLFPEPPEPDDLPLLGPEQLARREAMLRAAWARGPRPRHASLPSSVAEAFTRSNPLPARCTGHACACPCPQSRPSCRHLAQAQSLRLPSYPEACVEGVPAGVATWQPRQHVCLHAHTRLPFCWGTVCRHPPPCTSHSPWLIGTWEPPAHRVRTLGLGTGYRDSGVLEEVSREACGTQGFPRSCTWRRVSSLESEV
MEASUREMENT PROTOCOL: Two-electrode voltage-clamp (TEVC) recordings in Xenopus laevis oocytes, GluN1/GluN2C
Assay type: cell-based
CONDITION CONTEXT: maximum potentiation, response without modulator = 100%; read-out: GluN2C EC50 (μM)/Max %: Max %
Description: Data are from between 3-26 oocytes from 2-5 frogs for each compound and receptor tested. Two-electrode voltage-clamp recordings were performed in Xenopus laevis oocytes (Ecocyte) expressing recombinant rat GluN1/GluN2A, GluN1/GluN2B, GluN1/GluN2C, GluN1/GluN2D. cRNA was transcribed in vitro (Ambion), diluted with nuclease free water, and injected at a ratio of 1:2 GluN1:GluN2 (5-10 ng total cRNA). […]
QUANTITY KIND: Emax (%)

Worked cases, Emax given:
| COMPOUND | UNIT | Emax |
| --- | --- | --- |
| CCOc1ccc(OCC2c3ccc(OC(C)C)cc3CCN2C(=S)c2cccc(C(F)(F)F)c2)cc1 (centres unmarked) [1180-168] | % | 138 |
| CCOc1ccc(OCC2c3ccc(OC(C)C)cc3CCN2C(=O)c2ccc(Cl)c(Cl)c2)cc1 (centres unmarked) [1180-103] | % | 137 |
| CCOc1ccc(OCC2c3ccc(OC(C)C)cc3CCN2C(=S)c2cccc(Cl)c2)cc1 (centres unmarked) [1180-149] | % | 179 |

1: COc1ccc(OCC2c3ccc(N(C)C)cc3CCN2C(=S)c2cccc(Cl)c2)cc1 (centres unmarked) [1180-167]
2: COc1ccc(OCC2c3ccc(N(C)C)cc3CCN2C(=O)c2cccc(Cl)c2)cc1 (centres unmarked) [1180-104]
Exercise: Given 1 and given 2 , which shows the smaller recorded Emax? # respond with the chosen item's label
Solution: 1

----------
ASSAY SYSTEM: recombinant rat GluN1/GluN2D (Rattus norvegicus, UniProt P35439+Q62645)
Construct: expressed in transfected cells; host or cells: Xenopus laevis oocytes (Ecocyte) injected with in vitro transcribed cRNA
Sequence (Q62645 28-1323, other chains not shown): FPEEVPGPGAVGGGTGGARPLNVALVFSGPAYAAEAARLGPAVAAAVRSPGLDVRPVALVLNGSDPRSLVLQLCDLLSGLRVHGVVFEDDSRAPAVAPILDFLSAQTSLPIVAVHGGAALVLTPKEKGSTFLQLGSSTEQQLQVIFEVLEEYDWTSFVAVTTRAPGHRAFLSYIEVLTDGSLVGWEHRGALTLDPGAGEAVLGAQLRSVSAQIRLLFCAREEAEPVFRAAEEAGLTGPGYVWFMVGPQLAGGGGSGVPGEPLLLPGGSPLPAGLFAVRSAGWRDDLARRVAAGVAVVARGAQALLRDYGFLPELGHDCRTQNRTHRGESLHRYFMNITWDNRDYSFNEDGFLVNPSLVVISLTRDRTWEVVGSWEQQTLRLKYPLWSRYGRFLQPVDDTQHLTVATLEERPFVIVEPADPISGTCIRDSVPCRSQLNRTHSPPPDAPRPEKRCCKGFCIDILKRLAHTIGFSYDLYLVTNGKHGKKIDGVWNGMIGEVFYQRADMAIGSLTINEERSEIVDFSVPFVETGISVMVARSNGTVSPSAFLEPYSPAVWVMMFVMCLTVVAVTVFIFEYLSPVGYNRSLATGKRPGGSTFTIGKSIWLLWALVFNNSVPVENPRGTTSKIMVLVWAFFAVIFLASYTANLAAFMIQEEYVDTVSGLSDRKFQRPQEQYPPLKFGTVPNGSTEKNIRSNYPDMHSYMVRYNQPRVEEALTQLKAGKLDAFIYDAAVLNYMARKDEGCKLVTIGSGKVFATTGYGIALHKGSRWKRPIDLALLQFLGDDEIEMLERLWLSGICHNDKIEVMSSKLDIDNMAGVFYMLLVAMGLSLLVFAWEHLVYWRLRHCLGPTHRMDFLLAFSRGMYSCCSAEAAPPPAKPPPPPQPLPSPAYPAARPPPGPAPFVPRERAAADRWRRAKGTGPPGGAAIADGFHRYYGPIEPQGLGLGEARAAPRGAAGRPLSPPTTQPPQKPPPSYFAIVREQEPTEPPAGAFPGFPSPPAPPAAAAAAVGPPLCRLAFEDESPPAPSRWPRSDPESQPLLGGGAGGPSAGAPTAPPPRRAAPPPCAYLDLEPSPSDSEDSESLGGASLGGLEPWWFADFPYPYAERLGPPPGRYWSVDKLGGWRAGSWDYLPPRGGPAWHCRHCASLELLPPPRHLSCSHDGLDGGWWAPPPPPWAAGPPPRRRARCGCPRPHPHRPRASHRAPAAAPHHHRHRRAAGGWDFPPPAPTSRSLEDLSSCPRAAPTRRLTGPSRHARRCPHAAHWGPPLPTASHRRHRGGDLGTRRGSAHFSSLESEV
MEASUREMENT PROTOCOL: Two-electrode voltage-clamp (TEVC) recordings in Xenopus laevis oocytes, GluN1/GluN2D
Assay type: cell-based
CONDITION CONTEXT: fitted when potentiation at 30 μM exceeded 120%; Tables 3, 5-7; read-out: EC50 (max.) (μM %) GluN2D: fitted EC50
QUANTITY KIND: EC50 (µM)

| COMPOUND | ASSAY SYSTEM | UNIT | EC50 |
| --- | --- | --- | --- |
| COc1ccc(OC[C@H]2c3ccc(OC(C)C)cc3CCN2C(=O)c2cccc(Cl)c2)cc1 [(R)-(+)-1180-55] | recombinant rat GluN1/GluN2D (Rattus norvegicus, UniProt P35439+Q62645) | µM | 1.3 |
| CCOc1ccc(OC[C@@H]2c3ccc(OC(C)C)cc3CCN2C(=S)c2cccc(F)c2)cc1 [(S)-(−)-1180-154] | recombinant rat GluN1/GluN2D (Rattus norvegicus, UniProt P35439+Q62645) | µM | 0.47 |
| COc1ccc(OC[C@@H]2c3ccc(OC(C)C)cc3CCN2C(=O)c2cccc(Cl)c2)cc1 [(S)-(−)-1180-55] | recombinant rat GluN1/GluN2D (Rattus norvegicus, UniProt P35439+Q62645) | µM | 4.5 |

P: COc1ccc(OC[C@@H]2c3ccc(OC(C)C)cc3CCN2C(=S)c2cccc(Cl)c2)cc1 [(S)-(−)-1180-163]
Q: CCOc1ccc(OC[C@H]2c3ccc(OC(C)C)cc3CCN2C(=S)c2cccc(C(F)(F)F)c2)cc1 [(R)-(+)-1180-168]
R: COc1ccc(OC[C@H]2c3ccc(OC(C)C)cc3CCN2C(=S)c2cccc(Cl)c2)cc1 [(R)-(+)-1180-163]
Exercise: Arrange the 3 compounds from largest to smallest EC50. Answer format: the labels, in the requested order.
Solution: R, P, Q
